target: Leucine-rich repeat serine/threonine-protein kinase 2 (Homo sapiens) (UniProt Q5S007); conditions: at 1 µM;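 also: mean percent inhibition of LRRK2 measured in the GSK PKIS kinase inhibitor set screen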
Sequence (Q5S007 whole entry): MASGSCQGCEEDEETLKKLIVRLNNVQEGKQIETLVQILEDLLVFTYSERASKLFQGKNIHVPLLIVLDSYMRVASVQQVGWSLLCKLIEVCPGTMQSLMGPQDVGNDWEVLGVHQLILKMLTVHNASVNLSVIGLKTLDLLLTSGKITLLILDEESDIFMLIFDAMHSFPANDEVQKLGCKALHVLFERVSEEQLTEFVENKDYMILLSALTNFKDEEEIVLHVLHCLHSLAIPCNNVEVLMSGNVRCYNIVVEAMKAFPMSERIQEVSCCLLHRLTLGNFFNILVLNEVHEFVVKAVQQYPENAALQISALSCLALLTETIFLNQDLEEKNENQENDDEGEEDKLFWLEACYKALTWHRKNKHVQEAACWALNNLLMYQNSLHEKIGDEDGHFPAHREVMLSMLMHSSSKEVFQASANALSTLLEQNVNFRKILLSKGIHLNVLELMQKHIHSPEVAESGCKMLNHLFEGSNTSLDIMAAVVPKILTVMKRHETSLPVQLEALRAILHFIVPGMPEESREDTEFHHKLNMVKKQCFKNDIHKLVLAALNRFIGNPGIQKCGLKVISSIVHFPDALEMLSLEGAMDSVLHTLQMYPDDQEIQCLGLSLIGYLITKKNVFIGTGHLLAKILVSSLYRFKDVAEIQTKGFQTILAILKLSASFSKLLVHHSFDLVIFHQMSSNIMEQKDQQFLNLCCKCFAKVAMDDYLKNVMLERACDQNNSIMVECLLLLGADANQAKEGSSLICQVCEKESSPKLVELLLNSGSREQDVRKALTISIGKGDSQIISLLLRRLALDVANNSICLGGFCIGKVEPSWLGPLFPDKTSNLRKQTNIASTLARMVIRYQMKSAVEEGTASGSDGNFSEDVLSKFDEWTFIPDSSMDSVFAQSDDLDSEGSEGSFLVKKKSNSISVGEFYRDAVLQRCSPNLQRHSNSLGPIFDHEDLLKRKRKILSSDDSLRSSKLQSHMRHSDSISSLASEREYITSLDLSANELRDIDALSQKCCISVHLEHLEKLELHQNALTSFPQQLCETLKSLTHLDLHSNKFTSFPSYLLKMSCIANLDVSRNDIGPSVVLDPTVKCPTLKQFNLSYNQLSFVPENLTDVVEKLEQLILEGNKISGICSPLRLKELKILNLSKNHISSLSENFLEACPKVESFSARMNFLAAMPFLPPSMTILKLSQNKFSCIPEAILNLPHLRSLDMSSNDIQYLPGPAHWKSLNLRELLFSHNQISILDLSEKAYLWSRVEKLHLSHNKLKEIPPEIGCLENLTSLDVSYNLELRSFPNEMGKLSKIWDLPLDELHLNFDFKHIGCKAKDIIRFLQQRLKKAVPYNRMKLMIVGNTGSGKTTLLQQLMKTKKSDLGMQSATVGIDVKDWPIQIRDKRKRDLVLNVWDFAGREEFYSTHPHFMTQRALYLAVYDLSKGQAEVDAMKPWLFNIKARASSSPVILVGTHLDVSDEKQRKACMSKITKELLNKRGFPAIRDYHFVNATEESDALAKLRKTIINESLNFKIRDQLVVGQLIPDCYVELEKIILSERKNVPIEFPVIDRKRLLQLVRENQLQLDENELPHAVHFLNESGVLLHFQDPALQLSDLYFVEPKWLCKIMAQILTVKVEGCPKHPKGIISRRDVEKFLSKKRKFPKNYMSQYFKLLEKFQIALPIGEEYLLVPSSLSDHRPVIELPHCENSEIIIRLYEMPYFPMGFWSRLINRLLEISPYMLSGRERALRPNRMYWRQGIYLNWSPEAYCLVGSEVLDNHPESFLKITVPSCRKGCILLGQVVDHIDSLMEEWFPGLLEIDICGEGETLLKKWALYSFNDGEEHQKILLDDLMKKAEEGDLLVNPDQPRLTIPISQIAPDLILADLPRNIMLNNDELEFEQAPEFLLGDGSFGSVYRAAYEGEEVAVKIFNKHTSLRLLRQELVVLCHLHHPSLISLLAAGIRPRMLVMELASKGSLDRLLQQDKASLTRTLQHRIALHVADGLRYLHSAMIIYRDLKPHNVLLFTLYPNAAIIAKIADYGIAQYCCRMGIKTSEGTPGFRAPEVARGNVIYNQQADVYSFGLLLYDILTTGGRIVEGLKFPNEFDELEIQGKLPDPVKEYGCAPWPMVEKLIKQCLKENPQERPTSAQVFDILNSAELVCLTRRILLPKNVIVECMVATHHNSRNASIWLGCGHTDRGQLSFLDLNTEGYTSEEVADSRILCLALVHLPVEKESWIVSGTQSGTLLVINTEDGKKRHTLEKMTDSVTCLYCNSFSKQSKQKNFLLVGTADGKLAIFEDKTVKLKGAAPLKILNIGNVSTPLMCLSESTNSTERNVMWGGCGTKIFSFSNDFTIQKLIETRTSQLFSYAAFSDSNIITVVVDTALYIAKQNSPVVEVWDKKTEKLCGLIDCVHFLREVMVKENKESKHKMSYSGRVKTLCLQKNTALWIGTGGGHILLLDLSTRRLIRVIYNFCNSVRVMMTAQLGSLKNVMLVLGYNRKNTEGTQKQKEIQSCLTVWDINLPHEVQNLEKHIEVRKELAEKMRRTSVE
Please enter fulfilled where inhibition is greater than or equal to 10%, and not fulfilled where it is lower.

-- ask Is inhibition at least 10%? Consider NCc1ccc(-c2nc(-c3ccc(Cl)c(O)c3)c(-c3ccncc3)[nH]2)cc1
-- reply not fulfilled

* * *

Target: MAP/microtubule affinity-regulating kinase 4 (Homo sapiens);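 also: values are averaged percent inhibition of MARK4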
Sequence (whole entry): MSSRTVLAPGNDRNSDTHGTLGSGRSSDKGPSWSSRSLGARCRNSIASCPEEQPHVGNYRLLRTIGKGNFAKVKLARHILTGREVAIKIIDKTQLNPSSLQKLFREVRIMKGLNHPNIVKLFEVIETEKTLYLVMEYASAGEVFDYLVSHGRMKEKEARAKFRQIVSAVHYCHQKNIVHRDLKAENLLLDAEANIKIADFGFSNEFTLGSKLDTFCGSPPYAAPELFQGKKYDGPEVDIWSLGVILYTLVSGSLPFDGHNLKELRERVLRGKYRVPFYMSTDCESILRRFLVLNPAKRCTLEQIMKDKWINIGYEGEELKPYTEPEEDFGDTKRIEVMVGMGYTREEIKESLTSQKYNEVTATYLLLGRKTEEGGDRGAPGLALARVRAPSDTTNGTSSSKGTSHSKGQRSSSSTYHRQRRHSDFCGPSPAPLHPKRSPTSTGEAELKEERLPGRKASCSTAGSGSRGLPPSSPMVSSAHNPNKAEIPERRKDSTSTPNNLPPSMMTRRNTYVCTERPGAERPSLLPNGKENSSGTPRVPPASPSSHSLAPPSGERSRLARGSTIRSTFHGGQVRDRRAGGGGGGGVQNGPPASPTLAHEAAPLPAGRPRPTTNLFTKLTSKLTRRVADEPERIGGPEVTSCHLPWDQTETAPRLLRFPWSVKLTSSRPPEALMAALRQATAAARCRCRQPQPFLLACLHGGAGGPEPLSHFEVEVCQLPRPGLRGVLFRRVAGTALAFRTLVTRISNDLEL
Conditions: at 0.1 µM
Metric: inhibition (%)
Use % as the unit, but write only the number.

Fc1cccc(COc2ccc(Nc3ncnc4cc(-c5ccc[nH]5)sc34)cc2Cl)c1 = 1.49

-- ask Recorded inhibition for CC1=C(C(=O)Nc2ccc3[nH]ncc3c2)C(c2ccc(Cl)c(Cl)c2)CC(=O)N1 (centres undefined) with MAP/microtubule affinity-regulating kinase 4 (Homo sapiens), please?
-- reply -0.78

-- ask Recorded inhibition for COc1ccc2cc(-c3c(-c4ccncc4)nc(-c4ccc([S+](C)[O-])cc4)n3C)ccc2c1 (centres undefined) with MAP/microtubule affinity-regulating kinase 4 (Homo sapiens), please?
-- reply 1.4

-- ask Recorded inhibition for COc1cc2ncn(-c3cc(O[C@H](C)c4ccccc4Cl)c(C(N)=O)s3)c2cc1OC with MAP/microtubule affinity-regulating kinase 4 (Homo sapiens), please?
-- reply 4.58

-- ask Recorded inhibition for CN(C)c1cc2c(Nc3ccc4nc(Cc5ccccc5)[nH]c4c3)ncnc2cn1 with MAP/microtubule affinity-regulating kinase 4 (Homo sapiens), please?
-- reply 2.82

-- ask Recorded inhibition for CC1=C(C(=O)Nc2ccc3[nH]ncc3c2)C(c2ccc(F)cc2)NC(=O)N1 (centres undefined) with MAP/microtubule affinity-regulating kinase 4 (Homo sapiens), please?
-- reply 0.77

-- ask Recorded inhibition for COc1cc2ncn(-c3cc(OCc4ccccc4Cl)c(C(N)=O)s3)c2cc1OC with MAP/microtubule affinity-regulating kinase 4 (Homo sapiens), please?
-- reply 1.66

-- ask Recorded inhibition for Nc1ncnc2occ(-c3ccc(NC(=O)Nc4cccc(C(F)(F)F)c4)cc3)c12 with MAP/microtubule affinity-regulating kinase 4 (Homo sapiens), please?
-- reply 2.8

-- ask Recorded inhibition for CCn1c(-c2nonc2N)nc2cnc(Oc3cccc(NC(=O)c4ccc(OCCN5CCOCC5)cc4)c3)cc21 with MAP/microtubule affinity-regulating kinase 4 (Homo sapiens), please?
-- reply 1.29

Data provenance: ChEMBL document CHEMBL1961873
